So I've got a bunch of molecules here, and I need their NO activity values.
tested on: EA.Hy926 cells; assay: Measurement of intracellular nitric oxide using flow-cytometry (DAF FM-DA); format: cell-based, human; conditions: with or without folic acid pretreatment 24 hrs, then EGCG stimulation 30 mins, DAF FM-DA fluorescence compared with untreated cells (1.0 = no increase over untreated sample)
Give bare numbers.

Example molecules with recorded NO activity:
>  <molecule>
O=C(O[C@@H]1Cc2c(O)cc(O)cc2O[C@@H]1c1cc(O)c(O)c(O)c1)c1cc(O)c(O)c(O)c1 [Example 6, EGCG]

>  <system>
EA.Hy926 cells

>  <NO activity>
2.32

$$$$
>  <molecule>
O=C(O[C@@H]1Cc2c(O)cc(O)cc2O[C@@H]1c1cc(O)c(O)c(O)c1)c1cc(O)c(O)c(O)c1 [Example 7, EGCG]

>  <system>
EA.Hy926 cells

>  <NO activity>
1.64

$$$$
>  <molecule>
O=C(O[C@@H]1Cc2c(O)cc(O)cc2O[C@@H]1c1cc(O)c(O)c(O)c1)c1cc(O)c(O)c(O)c1 [Example 5, EGCG]

>  <system>
EA.Hy926 cells

>  <NO activity>
3.58

$$$$
>  <molecule>
O=C(O[C@@H]1Cc2c(O)cc(O)cc2O[C@@H]1c1cc(O)c(O)c(O)c1)c1cc(O)c(O)c(O)c1 [Example 4, EGCG]

>  <system>
EA.Hy926 cells

>  <NO activity>
3.75

$$$$
>  <molecule>
O=C(O[C@@H]1Cc2c(O)cc(O)cc2O[C@@H]1c1cc(O)c(O)c(O)c1)c1cc(O)c(O)c(O)c1 [Example 3, EGCG]

>  <system>
EA.Hy926 cells

>  <NO activity>
2.98

$$$$
>  <molecule>
O=C(O[C@@H]1Cc2c(O)cc(O)cc2O[C@@H]1c1cc(O)c(O)c(O)c1)c1cc(O)c(O)c(O)c1 [Example 8, EGCG]

>  <system>
EA.Hy926 cells

>  <NO activity>
0.63

$$$$

Shift focus to the following entry.
Ask: Which measured NO activity belongs to O=C(O[C@@H]1Cc2c(O)cc(O)cc2O[C@@H]1c1cc(O)c(O)c(O)c1)c1cc(O)c(O)c(O)c1 [Example 2, EGCG] , tested on EA.Hy926 cells?
Result: 2.87

Numbers sourced from patent US20150313824A1.
